SYSTEM: D(3) dopamine receptor (Homo sapiens)
Sequence (P35462 whole entry): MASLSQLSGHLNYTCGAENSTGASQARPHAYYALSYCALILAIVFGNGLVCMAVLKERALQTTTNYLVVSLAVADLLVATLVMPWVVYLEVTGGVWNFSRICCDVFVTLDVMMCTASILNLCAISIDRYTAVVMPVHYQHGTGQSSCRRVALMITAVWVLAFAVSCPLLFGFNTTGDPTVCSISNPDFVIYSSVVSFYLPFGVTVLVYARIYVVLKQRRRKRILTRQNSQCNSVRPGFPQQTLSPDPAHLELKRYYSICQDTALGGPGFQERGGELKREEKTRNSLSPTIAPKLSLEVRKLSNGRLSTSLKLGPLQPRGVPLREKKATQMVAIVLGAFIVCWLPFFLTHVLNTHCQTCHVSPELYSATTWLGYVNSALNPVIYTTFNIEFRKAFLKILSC
ASSAY_EXPLANATION: biochemical
Description: Binding affinity at Dopamine receptor D3 in CHO cells by radioligand displacement.
PROPERTY_MEASURED: log10(Ki) (log10 of the value in nM)
Friendly reminder: values = log10 of Ki, unit nM.

SUBSTANCE_SMILES	TEST_VALUE
Cc1ccc(N2CCN(Cc3ccc4c(c3)OCC(=O)N4)CC2)cc1	2.32

## Task Output measured log10(Ki) for this item: O=C1COc2cc(CN3CCN(c4ccccc4)CC3)ccc2N1
## Result 1.02

## Task Output measured log10(Ki) for this item: O=C1COc2cc(CN3CCN(c4ccc(Cl)cc4)CC3)ccc2N1
## Result 2.83

## Task Output measured log10(Ki) for this item: Cc1ccc(N2CCN(Cc3ccc4c(c3)NC(=O)CO4)CC2)cc1C
## Result 2.94

## Task Output measured log10(Ki) for this item: COc1ccc(C2CCN(Cc3ccc4c(c3)OCC(=O)N4)CC2)cc1
## Result 2.63

## Task Output measured log10(Ki) for this item: Cc1ccc(N2CCN(Cc3ccc4c(c3)NC(=O)CO4)CC2)cc1
## Result 3.40
